Target: serotonin 5-HT1A receptor (Rattus norvegicus)
Sequence (P19327 1-422): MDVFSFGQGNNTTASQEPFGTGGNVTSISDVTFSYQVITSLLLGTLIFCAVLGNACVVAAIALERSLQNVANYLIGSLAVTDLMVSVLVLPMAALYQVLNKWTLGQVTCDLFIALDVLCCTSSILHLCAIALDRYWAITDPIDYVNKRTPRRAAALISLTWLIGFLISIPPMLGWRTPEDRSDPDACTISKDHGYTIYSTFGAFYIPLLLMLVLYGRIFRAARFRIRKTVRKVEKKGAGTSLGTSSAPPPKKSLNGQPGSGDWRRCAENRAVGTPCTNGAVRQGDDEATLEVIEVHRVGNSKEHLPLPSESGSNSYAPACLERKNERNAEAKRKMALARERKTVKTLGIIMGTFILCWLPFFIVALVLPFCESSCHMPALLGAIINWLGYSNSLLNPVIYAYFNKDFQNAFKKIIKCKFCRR
Overview of recorded Ki for various compounds
measured_parameter: Ki

INSERT INTO measurements (compound, measured_parameter, test_result) VALUES
  ('CCCN(CCC)C1CCc2c(ccc3c2NC(=O)C3=O)C1 (centres unmarked)', 'Ki', '9930 nM'),
  ('CCCN(CCC)[C@H]1CCc2c(ccc3[nH]ccc23)[C@H]1C (relative stereo)', 'Ki', '124 nM'),
  ('CCCN(CCC)C1CCc2c(ccc3[nH]ccc23)C1 (centres unmarked) [Example 7A, reference compound]', 'Ki', '500 nM'),
  ('CCCN(CCC)C1CCc2c(ccc3[nH]cc(C=O)c23)C1 (centres unmarked)', 'Ki', '2600 nM'),
  ('CCCN(CCC)C1CCc2c(ccc3cc[nH]c23)C1 (centres unmarked)', 'Ki', '1120 nM'),
  ('CCCN(CCC)C1CCc2c(ccc3[nH]ccc23)C1 (single isomer, unassigned; (-)) [7A(-), reference compound]', 'Ki', '1450 nM'),
  ('CCCN(CCC)C1CCc2cc3[nH]ccc3cc2C1 (centres unmarked)', 'Ki', '340 nM'),
  ('CCCN(CCC)C1COc2c(ccc3cc[nH]c23)C1 (centres unmarked)', 'Ki', '178 nM');

The measured values listed here are drawn from patent US5639778A.
